Origin of values: patent US8367666B2

- Target of assay: CB2 receptor (Homo sapiens, UniProt P34972)
- Sequence (P34972 whole entry): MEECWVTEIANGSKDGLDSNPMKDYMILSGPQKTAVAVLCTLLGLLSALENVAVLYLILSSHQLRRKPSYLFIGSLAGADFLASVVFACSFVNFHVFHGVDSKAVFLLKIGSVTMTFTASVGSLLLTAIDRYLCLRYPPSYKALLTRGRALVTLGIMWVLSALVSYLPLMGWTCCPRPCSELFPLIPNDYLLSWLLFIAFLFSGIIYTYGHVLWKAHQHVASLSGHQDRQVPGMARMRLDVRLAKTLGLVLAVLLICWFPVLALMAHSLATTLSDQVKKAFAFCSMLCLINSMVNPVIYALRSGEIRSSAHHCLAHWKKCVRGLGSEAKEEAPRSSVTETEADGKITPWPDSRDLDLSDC
- Assay summary: cAMP formation inhibition experiment through a cannabinoid receptor (forskolin stimulation), CB2
- Format: cell-based
- Set-up: expressed in transfected cells; host or cells: CHO cells
pIC50: −log10 of the molar value.
Listed next: entries and their corresponding pIC50.
Property measured: pIC50

In [3]: df
Out[3]:
                                   compound  result_qualifier  result
0  CCc1c(C)cc(C(=O)NC2(C(=O)O)CCCCCCC2)c(=O)n1Cc1ccc(F)cc1 [Compound X-239]                 =    8.44
1  CC(C)NC(=O)NC1CCN(C(=O)C(C)(C)NC(=O)c2cc3c(n(CC4CCCCC4)c2=O)CCCCCC3)CC1 [Compound I-599]                 =    7.89
2  O=C(O)Cc1csc(NC(=O)c2cc3c(n(CC4CCCCC4)c2=O)CCCCCC3)c1 [IV-029]                 =    7.66
3  COC(=O)[C@@H](NC(=O)c1cc(C)c(C)n(Cc2ccc(F)cc2)c1=O)C(C)C [Compound I-094]                 >    8.70
